- System: parental HEK cells
- protocol.summary: HEK parental Agonist Counterscreen Assay (non-transfected cells)
- Assay type: cell-based
- assay.conditions: HEK Agonist Activity section
Could you label it 1 if measured Lipophilic Efficiency (logP) is 2 or higher, and -1 otherwise?

> print(dat)
                                   compound  category.label
1  O=C(CN1CCN(Cc2ccc(F)cc2Cl)C1=O)NCc1ccccc1Cl [SR-01000125622]              -1
2  CSc1cccc(NC(=O)C2C3C=CC4(O3)C2C(=O)N(C(C)c2ccccc2)C4C(=O)NC2CCCCC2)c1 (centres unmarked) [SR-01000546462]              -1

Exam item: hey, is Lipophilic Efficiency (logP) for this one >= 2? Cc1ccc(CCNC(=O)Cn2nc(-c3ccccc3)ccc2=O)cc1 [SR-01000145157]
Marked response: -1

Exam item: Please indicate if the recorded Lipophilic Efficiency (logP) for COc1ccc(CSc2nnc(-c3cccnc3)n2N)cc1 [SR-01000284323] meets or exceeds 2.
Marked response: 1

Exam item: Evaluate CN(C)CCOc1cc(NC(=O)C2COc3ccccc3C2)ccc1-c1cn[nH]c1.O=C(O)C(F)(F)F.O=C(O)C(F)(F)F (centres unmarked) [SR-00000004123] : Lipophilic Efficiency (logP) at minimum 2?
Marked response: -1

Exam item: Threshold query (Lipophilic Efficiency (logP) >= 2) on Cc1cccc(CNC(=O)Nc2ccc(-c3cn[nH]c3)cc2)c1.O=C(O)C(F)(F)F [SR-00000005301]
Marked response: -1

Exam item: Could you tell me if the measured Lipophilic Efficiency (logP) of Cc1cccc(COc2coc(COc3nccn3C)cc2=O)c1 [SR-01000916033] reaches 2 or more?
Marked response: 1

Exam item: Quick check: does O=C(CCc1ccccc1)Nc1nnc(Cc2cccs2)o1 [SR-01000920660] have Lipophilic Efficiency (logP) greater than or equal to 2?
Marked response: -1

Exam item: Confirm if Lipophilic Efficiency (logP) reported for the compound COc1ccc(CNC(=O)Nc2ccc(-c3cn[nH]c3)cc2)cc1.O=C(O)C(F)(F)F [SR-00000005347] is 2 or above.
Marked response: 1

Exam item: Hi, just wondering whether COc1ccccc1NC(=O)NNC(=O)CN1C(=O)COc2ccccc21 [SR-01000336035] shows Lipophilic Efficiency (logP) of 2 or higher.
Marked response: 1

----------
- subject.of.test: GPR139 (Homo sapiens)
- Sequence (Q6DWJ6 whole entry): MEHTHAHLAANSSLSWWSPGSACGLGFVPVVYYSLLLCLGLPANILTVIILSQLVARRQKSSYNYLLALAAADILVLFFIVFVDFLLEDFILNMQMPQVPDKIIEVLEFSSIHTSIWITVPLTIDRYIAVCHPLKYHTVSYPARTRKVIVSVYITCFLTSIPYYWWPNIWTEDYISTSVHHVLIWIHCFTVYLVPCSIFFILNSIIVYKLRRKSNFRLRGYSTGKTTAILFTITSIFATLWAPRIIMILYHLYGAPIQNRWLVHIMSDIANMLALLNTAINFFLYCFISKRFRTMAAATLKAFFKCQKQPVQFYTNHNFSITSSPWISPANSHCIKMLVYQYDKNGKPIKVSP
- protocol.summary: GPR139 Agonist titration / agonist counterscreen assay (calcium detection, HEK-GPR139 cells)
- Format: cell-based
- Set-up: expressed in transfected cells; host or cells: HEK Aequorin cells, Maxcyte transient transfection
- assay.conditions: GPR139 Agonist Activity; fitted dose-response curve
Listing of entries alongside the reported Hill Slope.
Lab note: jot the number down without any unit.

Exam item: Enter recorded Hill Slope with GPR139 (Homo sapiens) for Cc1nc(CNC(=O)CCC2(Cc3cccc4ccccc34)CCC(=O)N2)cs1 (centres unmarked) here.
Marked response: 0.44

Exam item: Provide Hill Slope, recorded with GPR139 (Homo sapiens), of `O=C(CN1CCN(C/C=C/c2ccccc2)CC1)NCCCc1ccccc1`
Marked response: 0.74

----------
- subject.of.test: GPR139 (Homo sapiens)
- protocol.summary: GPR139 Agonist titration / agonist counterscreen assay (calcium detection, HEK-GPR139 cells)
- Format: cell-based
- Design: expressed in transfected cells; host or cells: HEK Aequorin cells, Maxcyte transient transfection
- assay.conditions: GPR139 Agonist Activity; based on logD
reported.endpoint: Lipophilic Efficiency (logD)
Please respond with just the number, no unit label.

> print(dat)
                                   compound  measured
1  CC(C)CN1CCNC(=O)C1CC(=O)NCCCn1ccc2ccccc21 (centres unmarked)      6.35
2    O=C(Cc1cccc2ccccc12)Nc1nnc(-c2cccs2)o1      3.36
3  C=C(CCc1cccc(CC)c1)C(C)C1CCC(Cc2ccccc2C)C1=C (centres unmarked)      6.68
4  O=C(CC1Nc2ccccc2NC1=O)NCC1COc2ccccc2O1 (centres unmarked)      5.60

Shift focus to the following entry.
Exam item: For CC1(c2ccc3c(c2)OCO3)NC(=O)N(CC(=O)Nc2ccccc2[N+](=O)[O-])C1=O (centres unmarked) , write its Lipophilic Efficiency (logD).
Marked response: 5.22
